- target: human A3AR (Homo sapiens, UniProt P0DMS8)
- Construct: expressed in transfected cells
- Sequence (P0DMS8 whole entry): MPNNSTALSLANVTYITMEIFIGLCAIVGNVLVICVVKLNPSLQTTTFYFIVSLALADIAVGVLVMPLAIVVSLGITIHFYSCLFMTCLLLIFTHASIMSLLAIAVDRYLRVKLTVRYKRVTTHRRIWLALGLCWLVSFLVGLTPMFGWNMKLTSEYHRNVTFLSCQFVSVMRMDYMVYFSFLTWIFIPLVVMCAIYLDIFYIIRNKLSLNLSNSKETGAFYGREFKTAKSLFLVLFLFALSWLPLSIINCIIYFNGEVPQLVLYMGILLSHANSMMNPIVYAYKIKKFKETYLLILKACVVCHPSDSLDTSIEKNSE
- measurement.notes: LOPAC library primary screen: single concentration (10 μM) inhibition of 25 nM CA200645 binding, PHERAstar FS
Where a name gives a salt, the structure may show the parent alone.
Some compounds, each annotated with its measured % 25 nM CA200645 binding.

compound: O=P1(N(CCCl)CCCl)NCCCO1 (stereo not shown) [Cyclophosphamide monohydrate]
% 25 nM CA200645 binding: 79.2 ± 18.9%

compound: COc1cccc(OC)c1OCCNCC1COc2ccccc2O1.Cl (stereo not shown) [WB-4101 hydrochloride]
% 25 nM CA200645 binding: 76.0 ± 5.8%

compound: O=C1NC(=O)c2cc(Nc3ccccc3)c(Nc3ccccc3)cc21
% 25 nM CA200645 binding: 31.8 ± 9.9%

compound: CC(=O)O[C@H]1C[C@@]2(C)[C@@H](C[C@@H](O)[C@H]3[C@@]4(C)CC[C@@H](O)[C@@H](C)[C@@H]4CC[C@@]32C)/C1=C(\CCC=C(C)C)C(=O)[O-].[Na+] [Fusidic acid sodium]
% 25 nM CA200645 binding: 93.0 ± 9.1%

compound: CC12CC3CC(C)(C1)CC(N)(C3)C2 [Memantine hydrochloride]
% 25 nM CA200645 binding: 109.9 ± 10.5%

compound: CC1=C(/C=C/C(C)=C/C=C/C(C)=C/C=C/C=C(C)/C=C/C=C(C)/C=C/C2=C(C)C(=O)[C@@H](O)CC2(C)C)C(C)(C)C[C@H](O)C1=O
% 25 nM CA200645 binding: 96.8 ± 4.6%

Now examine the next entry.
In: Recorded % 25 nM CA200645 binding of CC(=O)OCC1=C(C(=O)[O-])N2C(=O)[C@@H](NC(=O)CCC[C@@H](N)C(=O)[O-])[C@H]2SC1.[Zn+2] [Cephalosporin C zinc salt] , please.
Out: 86.9 ± 28.2%

###

Some compounds, each annotated with its measured % 25 nM CA200645 binding.
- target: human A3AR (Homo sapiens)
- Construct: expressed in transfected cells
- measurement.notes: LOPAC library primary screen: single concentration (10 μM) inhibition of 25 nM CA200645 binding, PHERAstar FS
# number then unit; no other words

These solved cases illustrate the format of a correct answer.
compound: CCN1CCCC1CNC(=O)c1cc(S(N)(=O)=O)ccc1OC (racemic) [(±)-Sulpiride]
% 25 nM CA200645 binding: 102.1 ± 6.1%
//
compound: CNCCc1cnc(CCC(c2ccccc2)c2ccccc2)[nH]1.O=C(O)C(=O)O.O=C(O)C(=O)O [N-Methylhistaprodifen dioxalate salt]
% 25 nM CA200645 binding: 99.4 ± 7.3%
//
compound: O=c1[nH]c2ccccc2n1CCCN1CCC(n2c(=O)[nH]c3cc(Cl)ccc32)CC1 [Domperidone]
% 25 nM CA200645 binding: 99.6 ± 10.5%
//
compound: OC[C@H]1NC[C@@H](O)[C@@H]1O [1,4-Dideoxy-1,4-imino-D-arabinitol]
% 25 nM CA200645 binding: 90.0 ± 6.2%
//
compound: C[C@@H]1O[C@H](C[N+](C)(C)C)C[C@H]1O.[Cl-] (racemic) [(±)-Muscarine chloride]
% 25 nM CA200645 binding: 94.8 ± 15.8%
//
compound: CC(=O)OCC1=C(C(=O)O)N2C(=O)[C@@H](NC(=O)Cc3cccs3)[C@H]2SC1 [Cephalothin sodium]
% 25 nM CA200645 binding: 104.6 ± 12.0%

Now examine the next entry.
In: Under human A3AR (Homo sapiens): % 25 nM CA200645 binding value of Fc1ccc2[nH]c(CN3CCN(c4ccccn4)CC3)cc2c1 [CP-226269] ?
Out: 83.6 ± 17.8%

###

Some compounds, each annotated with its measured % 25 nM CA200645 binding.
- target: human A3AR (Homo sapiens, UniProt P0DMS8)
- Construct: expressed in transfected cells
- measurement.notes: LOPAC library primary screen: single concentration (10 μM) inhibition of 25 nM CA200645 binding, PHERAstar FS
Counter-ions that a name gives are not always drawn.
Write the answer as a number in %, unit excluded.

compound: Nc1nc(N)c(N=O)c(OCC2CCCCC2)n1
% 25 nM CA200645 binding, %: 80.6

compound: CC(C)C[C@H]1C(=O)N2CCC[C@H]2[C@]2(O)O[C@](NC(=O)[C@@H]3C=C4c5cccc6[nH]c(Br)c(c56)C[C@H]4N(C)C3)(C(C)C)C(=O)N12.CS(=O)(=O)O [(+)-Bromocriptine methanesulfonate]
% 25 nM CA200645 binding, %: 60.6

compound: C[N+](C)(C)CCOC(N)=O
% 25 nM CA200645 binding, %: 103.1

compound: Cl.O[Si](CCCN1CCCCC1)(c1ccc(F)cc1)C1CCCCC1 (stereo not shown)
% 25 nM CA200645 binding, %: 104.8

compound: CC1=NN=C(c2ccc(N)cc2)c2cc3c(cc2C1)OCO3.Cl [GYKI 52466 hydrochloride]
% 25 nM CA200645 binding, %: 78.2

In: Recorded % 25 nM CA200645 binding of N#CCCN.N#CCCN.O=C(O)/C=C/C(=O)O [3-Aminopropionitrile fumarate] , please.
Out: 91.9

In: Recorded % 25 nM CA200645 binding of O=C(O)COCCN1CCN(C(c2ccccc2)c2ccc(Cl)cc2)CC1 (stereo not shown) [Cetirizine dihydrochloride] , please.
Out: 98.6

###

- target: human A3AR (Homo sapiens, UniProt P0DMS8)
- Construct: expressed in transfected cells
- measurement.notes: LOPAC library primary screen: single concentration (10 μM) inhibition of 25 nM CA200645 binding, PHERAstar FS
Structures can show the parent of a compound that is named as a salt.
outcome.measure: % 25 nM CA200645 binding (%)
Write the answer as a number in %, unit excluded.

compound: CN1C(C(=O)Nc2ccccn2)=C(O)c2ccccc2S1(=O)=O
target: human A3AR (Homo sapiens, UniProt P0DMS8)
% 25 nM CA200645 binding [%]: 101.0
//
compound: CCCCNc1ccc(C(=O)OCCN(C)C)cc1 [Tetracaine hydrochloride]
target: human A3AR (Homo sapiens, UniProt P0DMS8)
% 25 nM CA200645 binding [%]: 85.8
//
compound: CC(C)NCC(O)COc1ccc(COCCOC(C)C)cc1.CC(C)NCC(O)COc1ccc(COCCOC(C)C)cc1.O=C(O)/C=C/C(=O)O (stereo not shown) [Bisoprolol hemifumarate salt]
target: human A3AR (Homo sapiens, UniProt P0DMS8)
% 25 nM CA200645 binding [%]: 106.9
//
compound: CCCCC#Cc1nc(NC)c2ncn([C@@H]3O[C@H](CO)[C@@H](O)[C@H]3O)c2n1 [HEMADO, reference compound]
target: human A3AR (Homo sapiens, UniProt P0DMS8)
% 25 nM CA200645 binding [%]: 40.1
//
compound: O=C(N[C@H]1CN2CCC1CC2)c1ccc(Cl)cc1
target: human A3AR (Homo sapiens, UniProt P0DMS8)
% 25 nM CA200645 binding [%]: 78.9
//
compound: C[C@H]1C[C@H]2[C@@H]3CCC4=CC(=O)C=C[C@]4(C)[C@@]3(F)[C@@H](O)C[C@]2(C)[C@@]1(O)C(=O)CO
target: human A3AR (Homo sapiens, UniProt P0DMS8)
% 25 nM CA200645 binding [%]: 77.0
//
compound: NC(=O)c1cnccn1 [Pyrazinecarboxamide]
target: human A3AR (Homo sapiens, UniProt P0DMS8)
% 25 nM CA200645 binding [%]: 88.9
//
compound: CCCCCCCCCC[Si](C)(C)CCC(=O)NC(Cc1ccc(C)cc1)c1ccccc1 (stereo not shown)
target: human A3AR (Homo sapiens, UniProt P0DMS8)
% 25 nM CA200645 binding [%]: 99.6

In: Under human A3AR (Homo sapiens, UniProt P0DMS8): % 25 nM CA200645 binding value of CC1CCN=C(N)S1.Cl (racemic) [(±)-AMT hydrochloride] ?
Out: 100.6

In: Under human A3AR (Homo sapiens, UniProt P0DMS8): % 25 nM CA200645 binding value of CSc1ccc2c(c1)N(CCC1CCCCN1C)c1ccccc1S2 (stereo not shown) [Thioridazine hydrochloride] ?
Out: 102.5

In: Under human A3AR (Homo sapiens, UniProt P0DMS8): % 25 nM CA200645 binding value of CN(C)CCC=C1c2ccccc2C=Cc2ccccc21 [Cyclobenzaprine hydrochloride] ?
Out: 85.3

In: Under human A3AR (Homo sapiens, UniProt P0DMS8): % 25 nM CA200645 binding value of NC(=O)c1cc[n+](CC2=C(C(=O)[O-])N3C(=O)[C@@H](NC(=O)C(c4ccccc4)S(=O)(=O)[O-])[C@H]3SC2)cc1.O.[Na+] (stereo partly shown) [Cefsulodin sodium salt hydrate] ?
Out: 100.8

In: Under human A3AR (Homo sapiens, UniProt P0DMS8): % 25 nM CA200645 binding value of Cn1c(=O)c2[nH]c(-c3ccccc3)nc2n(C)c1=O ?
Out: 91.8

In: Under human A3AR (Homo sapiens, UniProt P0DMS8): % 25 nM CA200645 binding value of O=[N+]([O-])c1cccc2cn[nH]c12 ?
Out: 126.0

In: Under human A3AR (Homo sapiens, UniProt P0DMS8): % 25 nM CA200645 binding value of COc1cccc(-c2cc(=O)c3ccccc3o2)c1N ?
Out: 80.7

In: Under human A3AR (Homo sapiens, UniProt P0DMS8): % 25 nM CA200645 binding value of NCCc1c[nH]c2ccccc12 [Tryptamine hydrochloride] ?
Out: 98.8
